MEASUREMENT_PROTOCOL: Drug level in NA-receptor null C57BL/6 mouse blood at 100 mg/kg, po after 15 mins
Assay type: ADME, organism-based
Set-up: dose 100 mg/kg, route oral
QUANTITY_NAME: concentration at 0.25 h
Include the unit right after the number.

Entry under test: CC(C)(Cc1nc(-c2ccc(O)cn2)no1)C(=O)NC1=C(C(=O)O)CCCC1 . Its concentration at 0.25 h was 148 µM

---

Tested on: Rattus norvegicus
MEASUREMENT_PROTOCOL: Plasma concentration in rat at 100 mg/kg, ip
Format: ADME, organism-based
Design: dose 100 mg/kg, route intraperitoneal
APPLIED_CONDITIONS: in vivo
QUANTITY_NAME: concentration

Entry under test: CC(C)(Cc1nc(-c2ccc(O)cn2)no1)C(=O)NC1=C(C(=O)O)CCCC1 . Its concentration was 555 µM

---

MEASUREMENT_TARGET: UniProt:P49019
Sequence (P49019 whole entry): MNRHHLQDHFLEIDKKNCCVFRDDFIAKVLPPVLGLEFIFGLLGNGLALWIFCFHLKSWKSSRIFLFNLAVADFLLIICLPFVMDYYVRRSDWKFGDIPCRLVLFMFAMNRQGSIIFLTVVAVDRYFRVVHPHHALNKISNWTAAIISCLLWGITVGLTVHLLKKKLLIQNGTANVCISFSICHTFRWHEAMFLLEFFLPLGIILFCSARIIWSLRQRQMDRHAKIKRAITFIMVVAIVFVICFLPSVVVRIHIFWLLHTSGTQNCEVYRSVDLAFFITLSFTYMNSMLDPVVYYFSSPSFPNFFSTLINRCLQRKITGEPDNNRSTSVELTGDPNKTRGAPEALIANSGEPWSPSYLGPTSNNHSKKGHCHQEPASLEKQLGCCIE
MEASUREMENT_PROTOCOL: Binding affinity to GPR109B
The source made the active and inactive calls. No cut-off for these calls is given here.
QUANTITY_NAME: Activity

# count of solved cases: 4
MOLECULE	Activity
O=C(CCc1nc(-c2ccc(O)cn2)no1)NC1=C(C(=O)O)CCCC1	inactive
CC(Cc1nc(-c2ccc(O)cn2)no1)C(=O)NC1=C(C(=O)O)CCCC1 (single isomer, unassigned; enantiomer B)	inactive
CC(Cc1nc(-c2ccc(O)cn2)no1)C(=O)NC1=C(C(=O)O)CCCC1 (single isomer, unassigned)	inactive
CC(C)(Cc1nc(-c2ccc(O)cn2)no1)C(=O)NC1=C(C(=O)O)CCCC1	inactive

Entry under test: O=C(CCc1nc(-c2ccc(O)cn2)no1)Nc1ccccc1C(=O)O . Its Activity was inactive

---

MEASUREMENT_PROTOCOL: Half life in rhesus monkey at 1.0 mg/kg, iv or 2 mg/kg, po
Assay type: ADME, organism-based, Macaca mulatta
APPLIED_CONDITIONS: in vivo
QUANTITY_NAME: half-life (h)
Please give a number only; it is taken to be in h.

Entry under test: CC(C)(Cc1nc(-c2ccc(O)cn2)no1)C(=O)NC1=C(C(=O)O)CCCC1 . Its half-life was 4.9

---

The following molecules are listed with their measured bioavailability values.
MEASUREMENT_PROTOCOL: Bioavailability in rat at 1.0 mg/kg, iv or 2 mg/kg, po
Format: ADME, organism-based
APPLIED_CONDITIONS: in vivo
Please give a number only; it is taken to be in %.

# count of solved cases: 2
MOLECULE	bioavailability [%]
CC(Cc1nc(-c2ccc(O)cn2)no1)C(=O)NC1=C(C(=O)O)CCCC1 (single isomer, unassigned)	19
O=C(CCc1nc(-c2ccc(O)cn2)no1)NC1=C(C(=O)O)CCCC1	22

# ---- query molecule ----
Entry under test: CC(C)(Cc1nc(-c2ccc(O)cn2)no1)C(=O)NC1=C(C(=O)O)CCCC1 . Its bioavailability was 24

---

MEASUREMENT_PROTOCOL: Clearance in rhesus monkey at 1.0 mg/kg, iv or 2 mg/kg, po
Assay type: ADME, organism-based, Macaca mulatta
APPLIED_CONDITIONS: in vivo
QUANTITY_NAME: clearance
Include the unit right after the number.

Entry under test: CC(C)(Cc1nc(-c2ccc(O)cn2)no1)C(=O)NC1=C(C(=O)O)CCCC1 . Its clearance was 0.4 mL/min/kg
